Molecular target: T1, C-terminal biotinylated human Hepcidin-25 (human, not fully specified; biotinylated via a Lysine residue coupled to the C-terminus via a Mini-PEG linker)
T1 construct: Bought from Bachem AG; Captured on plates via Neutravidin; also called C-terminal biotinylated hepcidin; C-terminal biotinylated hHepcidin
T1 peptide: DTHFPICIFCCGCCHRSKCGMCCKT
Assay: direct ELISA, biotinylated hepcidin captured via Neutravidin, mutein titrated
Description: A “direct” ELISA was performed to verify the binding affinity and specificity of the selected Lcn2 muteins. […] Two step dilution series of purified Lcn2 muteins were incubated with the captured hepcidin for 1 h at room temperature and detected either via the Strep-tag II using a rabbit anti-strep-tag II polyconal antibody (GenScript, USA) or by using a scaffold-specific polyclonal rabbit antibody. […]
pKd: −log10 of the molar value.

>  <binder>
lipocalin mutein of SEQ ID NO: 8 (designed binder, also called Lcn2 mutein) QDSTSDLIPAPPLSKVPLQQNFQDNQFHGKWYVVGLAGNEVLREDKDPMKMWATIYELKEDKSYNVTIVMPLAEKCEYLFQTFVPGSQPGEFTLGGIKSGPGRTSGLVRVVSTNYNQHAMVFFKVVWQNREVFWVTLYGRTKELTSELKENFIRFSKSLGLPENHIVFPVPIDQCIDG

>  <pKd>
9.18

$$$$
>  <binder>
lipocalin mutein of SEQ ID NO: 1 (designed binder, also called Lcn2 mutein; hNGAL mutein) QDSTSDLIPAPPLSKVPLQQNFQDNQFHGKWYVVGLAGNEVLREDKDPMKMWATIYELEEDKSYNVTIVMFLAKKCEYLFQTFVPGSQPGEFTLGDIKSSPGRTSGLVRVVSTNYNQHAMVFFKTVWQNREVFWITLYGRTKELTSELKENFIRFSKSLGLPENHIVFPVPIDQCIDG

>  <pKd>
9.59

$$$$
>  <binder>
lipocalin mutein of SEQ ID NO: 14, linked to PEG40 (designed binder, branched 40k PEG-maleimide on the free Cys at position 87, hNGAL mutein with Ser 87 back-mutated to Cys and PEGylated there) QDSTSDLIPAPPLSKVPLQQNFQDNQFHGKWYVVGLAGNEVLREDKDPMKMWATIYELEEDKSYNVTIVMFLAKKCEYLFQTFVPGCQPGEFTLGDIKSSPGRTSGLVRVVSTNYNQHAMVFFKTVWQNREVFWITLYGRTKELTSELKENFIRFSKSLGLPENHIVFPVPIDQCIDG

>  <pKd>
8.66

$$$$
>  <binder>
lipocalin mutein of SEQ ID NO: 3 (designed binder, also called Lcn2 mutein) QDSTSDLIPAPPLSKVPLQQNFQDNQFHGKWYVVGVAGNGLLREDKDPLKMHATIYELKEDKSYNVTRVLFVRKKCRYYISTFVPGSQPGEFTLGRIKSEPGRTSFLVRVVSTNYNQHAMVFFKMVWQNREVFWITLYGRTKELTSELKENFIRFSKSLGLPENHIVFPVPIDQCIDG

>  <pKd>
9.08

$$$$
